- test system: Axl (UniProt P30530)
- Sequence (P30530 26-451 limits assumed): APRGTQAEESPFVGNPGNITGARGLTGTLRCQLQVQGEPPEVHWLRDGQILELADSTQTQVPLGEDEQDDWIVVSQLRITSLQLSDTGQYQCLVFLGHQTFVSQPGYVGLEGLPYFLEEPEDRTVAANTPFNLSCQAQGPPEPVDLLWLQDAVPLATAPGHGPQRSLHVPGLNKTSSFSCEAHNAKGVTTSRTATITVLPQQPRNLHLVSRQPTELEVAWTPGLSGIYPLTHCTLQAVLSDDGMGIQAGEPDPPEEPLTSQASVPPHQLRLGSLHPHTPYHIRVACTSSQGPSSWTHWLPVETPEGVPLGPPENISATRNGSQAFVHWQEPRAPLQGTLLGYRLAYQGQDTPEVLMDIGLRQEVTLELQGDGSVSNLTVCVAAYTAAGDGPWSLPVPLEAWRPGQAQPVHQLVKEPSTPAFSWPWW
- assay info: ELISA, 1:9 dilution
property name: Affinity ELISA CPE mutant ratio (1:9, pH 6.0/7.4)

binder: HC-E102I (antibody, V domains shown) VH: EVQLVQSGAEVKKPGATVKISCKVSGYSFTGHTMNWIRQPPGKGLEWIGLIKPSNGGTSYNQKFKGRVTISADKSISTAYLQWSSLKASDTAMYYCAHGHYISYFAMDYWGQGTLVTVSS VL: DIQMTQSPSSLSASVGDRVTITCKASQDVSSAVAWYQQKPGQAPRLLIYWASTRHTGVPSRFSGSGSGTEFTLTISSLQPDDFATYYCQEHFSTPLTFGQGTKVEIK
reading: 1.7
--
binder: HC-F105N (antibody, V domains shown) VH: EVQLVQSGAEVKKPGATVKISCKVSGYSFTGHTMNWIRQPPGKGLEWIGLIKPSNGGTSYNQKFKGRVTISADKSISTAYLQWSSLKASDTAMYYCAHGHYESYNAMDYWGQGTLVTVSS VL: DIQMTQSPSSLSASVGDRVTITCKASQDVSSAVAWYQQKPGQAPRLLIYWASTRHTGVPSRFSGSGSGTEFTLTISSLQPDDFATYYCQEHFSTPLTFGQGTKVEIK
reading: 2.64
--
binder: LC-P095W (antibody, V domains shown) VH: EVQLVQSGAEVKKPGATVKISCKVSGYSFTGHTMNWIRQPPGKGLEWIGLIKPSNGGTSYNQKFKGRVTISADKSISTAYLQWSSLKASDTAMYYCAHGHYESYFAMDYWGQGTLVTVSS VL: DIQMTQSPSSLSASVGDRVTITCKASQDVSSAVAWYQQKPGQAPRLLIYWASTRHTGVPSRFSGSGSGTEFTLTISSLQPDDFATYYCQEHFSTWLTFGQGTKVEIK
reading: 2.26
--
binder: LC-A051P (antibody, V domains shown) VH: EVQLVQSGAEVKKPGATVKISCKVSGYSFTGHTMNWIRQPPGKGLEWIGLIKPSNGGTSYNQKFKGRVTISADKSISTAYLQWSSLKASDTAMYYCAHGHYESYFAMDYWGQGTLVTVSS VL: DIQMTQSPSSLSASVGDRVTITCKASQDVSSAVAWYQQKPGQAPRLLIYWPSTRHTGVPSRFSGSGSGTEFTLTISSLQPDDFATYYCQEHFSTPLTFGQGTKVEIK
reading: 1.57
--
binder: LC-H091Y (antibody, V domains shown) VH: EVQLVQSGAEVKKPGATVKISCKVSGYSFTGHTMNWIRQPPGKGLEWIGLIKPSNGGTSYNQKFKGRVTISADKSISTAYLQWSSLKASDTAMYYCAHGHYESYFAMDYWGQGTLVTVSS VL: DIQMTQSPSSLSASVGDRVTITCKASQDVSSAVAWYQQKPGQAPRLLIYWASTRHTGVPSRFSGSGSGTEFTLTISSLQPDDFATYYCQEYFSTPLTFGQGTKVEIK
reading: 5.13

Data credit: patent US20250276075A1
